- assayText: acute toxicity LD50, rat
- settings: in vivo, ip
Where a name gives a salt, the structure may show the parent alone.
readout: LD50 (mg/kg)
Write the number in mg/kg without appending the unit.

Reported LD50, molecule CC(C)(CO)NCC(O)c1ccccc1 (stereo not shown) [EL-508, hydrochloride] : ____
350

====

- assayText: acute toxicity LD50, mouse
- settings: in vivo, iv
Structures can show the parent of a compound that is named as a salt.
readout: LD50 (mg/kg)
Form entry: value (mg/kg) — number only.

For CC(C)(CO)NCC(O)c1ccccc1 (stereo not shown) [EL-508, hydrochloride] , what is its reported LD50?
79

====

- assayText: acute toxicity LD50, mouse
- settings: in vivo, ip
Counter-ions that a name gives are not always drawn.
readout: LD50
Kindly format the answer as number then unit.

Fill blank: measured LD50 of the compound CC(C)(CO)NCC(O)c1ccccc1 (stereo not shown) [EL-508, hydrochloride] is ____.
295 mg/kg
